experimental.system: OXA-72 (Acinetobacter baumannii, UniProt Q5XQU0)
Sequence (Q5XQU0 entry or part of it): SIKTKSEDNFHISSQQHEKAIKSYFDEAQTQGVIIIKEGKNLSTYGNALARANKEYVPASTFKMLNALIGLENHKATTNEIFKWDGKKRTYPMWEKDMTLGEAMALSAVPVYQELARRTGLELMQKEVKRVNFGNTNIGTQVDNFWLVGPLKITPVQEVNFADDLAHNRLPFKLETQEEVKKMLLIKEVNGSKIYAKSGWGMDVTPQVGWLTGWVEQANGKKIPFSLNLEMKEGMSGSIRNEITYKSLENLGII
assay.name: Ki,app against β-lactamase (Example 1, Table 1)
Format: biochemical
protocol.conditions: OXA-72, class D; 30 min preincubation; n.d.: too low inhibitor activity at 100 µmol/L; *: value from one of three experiments
Description: After stirring, the resultants were preincubated for 30 minutes at 37°C. The reporter substrate solution was incubated at 37°C for 15 minutes or more, dispensed at 100 µL/well, and measured for a change in absorbance by a microplate reader at 37°C. For each measured concentration of the positive control and the inhibitor, an initial rate (µmol/L/sec) was determined from a time to be analyzed and a change in product amount. […]
measured.metric: pKi
Answer as the number alone; pKi is minus log10 of concentration in mol/L.

Kindly note the recorded pKi for "NC(=O)[C@@H]1CC[C@@H]2CN1C(=O)N2OS(=O)(=O)O" , which is 6.16
